Where do these numbers come from? They come from ChEMBL document CHEMBL5058577.

Listed here are compounds together with their documented Population Fragmented Nuclei (%).
tested on: U2OS; test: Multiplex assay against U2OS; assay type: toxicity, cell-based; conditions: human, 12 h, 10 µM, compound concentration 10 uM, replicate 1
Write it as a number; the unit % goes unstated.

{"columns": ["Compound", "Units", "Endpoint Result"],
 "data": [
  ["COc1cc2nc(N3CCN(C(=O)c4ccco4)CC3)nc(N)c2cc1OC.Cl [PRAZOSIN HYDROCHLORIDE]", "%", 25],
  ["COc1cc2nc(N3CCN(C(=O)COc4c(OC)cccc4C(C)C)CC3)nc(N)c2cc1OC.Cl.Cl", "%", 30],
  ["Cc1c(Cc2ccc3ccccc3n2)c2cc(F)ccc2n1CC(=O)O [TIMAPIPRANT]", "%", 30]
]}

Task: Please look at this compound and report its Population Fragmented Nuclei (%): C=CCN1C[C@H](C(=O)N(CCCN(C)C)C(=O)NCC)C[C@@H]2c3cccc4[nH]cc(c34)C[C@H]21 [CABERGOLINE]
Result: 35

Task: Give the value of Population Fragmented Nuclei (%) reported for the following: CSc1nc(NC2CCCC2)c([N+](=O)[O-])c(NC2CCCC2)n1 [GS-39783]
Result: 30

Task: Respond only with Population Fragmented Nuclei (%) recorded for OCCCNc1cc(-c2ccnc(Nc3cccc(Cl)c3)n2)ccn1
Result: 37

Task: Recall and state the measured Population Fragmented Nuclei (%) for CCC(=O)OCC(=O)[C@@]1(OC(=O)CC)[C@@H](C)C[C@H]2[C@@H]3CCC4=CC(=O)C=C[C@]4(C)[C@@]3(Cl)[C@@H](O)C[C@@]21C [BECLOMETHASONE DIPROPIONATE] .
Result: 42
